Each record here notes measured LD50.
Test: Acute toxicity test (LD50)
Settings: rat, in vivo, ip; intraperitoneal administration, rats
Protocol: The acute toxicity (LD50) of several typical examples of the present compounds [I] (i.e., the compounds of Examples 1, 8, 13, 19, 24, 26 and 33) was tested with 5-weeks-old male Wistar rats. […] When Omeprazole was administered orally, its LD50 value was greater than 4000 mg/kg.

Example results:
CCOc1ccc2[nH]c([S+]([O-])Cc3ncc(C)c(C)c3C)nc2n1 (stereo not shown) [Example 8] ... > 500 mg/kg
CCCCCCCOc1ccc2[nH]c([S+]([O-])Cc3ncc(C)cc3C)nc2n1 (stereo not shown) [Example 33] ... > 500 mg/kg
COc1cc(C[S+]([O-])c2nc3nc(OCC4CC4)ccc3[nH]2)ncc1C (stereo not shown) [Example 13] ... > 500 mg/kg

Incoming: Return the recorded LD50 value; entry: Cc1cnc(C[S+]([O-])c2nc3nc(OCC(C)C)ccc3[nH]2)c(C)c1 (stereo not shown) [Example 19]
Outgoing: > 500 mg/kg

Incoming: Please report LD50 for the following compound: COc1c(C)cnc(C[S+]([O-])c2nc3nc(OCC4CC4)ccc3[nH]2)c1C (stereo not shown) [Example 24]
Outgoing: > 500 mg/kg

Incoming: Give the reported LD50 for this compound. COc1c(C)cnc(C[S+]([O-])c2nc3nc(OCC(F)(F)F)ccc3[nH]2)c1C (stereo not shown) [Example 26]
Outgoing: > 500 mg/kg

Incoming: // fetch LD50 given entry COc1ccc2[nH]c([S+]([O-])Cc3ncc(C)cc3C)nc2n1 (stereo not shown) [Example 1]
Outgoing: > 500 mg/kg

Data provenance: patent US4808596A
